# Experimental Protocol: growth suppression of beta-catenin knockout HCT116, pilot screen, human colon tumor cells (AID 823);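 also: 0% = wells killed by 20 µM Hyamine and 100% = untreated DMSO cell wells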
# Applied Conditions: CellTiter-Glo, 60 h, at 10 µM, active compounds read low
Inconclusive results are not listed.
Each entry below carries its reported viability.

{"Compound": "COc1cccc(/C=C2\\N=C(SC)SC2=O)c1OC", "Result Unit": "%", "viability": 89.8}
{"Compound": "CCC(c1ccccc1)c1nc(-c2ccccn2)no1 (centres undefined)", "Result Unit": "%", "viability": 91.8}
{"Compound": "Cc1ccc2c(c1)c(C)c(C)n2CC(O)Cn1nnc2ccccc21 (centres undefined)", "Result Unit": "%", "viability": 82.3}
{"Compound": "Nc1c(C(=O)NCc2ccccc2)nnn1Cc1ccccc1", "Result Unit": "%", "viability": 99.8}
{"Compound": "c1cc2c3c(cccc3c1)C(N1CCCCC1)=N2", "Result Unit": "%", "viability": 72.1}
{"Compound": "O=C(NC1=NCCS1)C1CC2CCC1C2 (centres undefined)", "Result Unit": "%", "viability": 99.1}
{"Compound": "CCOc1ccc(C2CC(c3ccccc3C)n3ncnc3N2)cc1 (centres undefined)", "Result Unit": "%", "viability": 87.3}
{"Compound": "COc1ccc(C(=O)N(Cc2nc(-c3ccc(C)cc3)no2)C(C)C)cc1OC", "Result Unit": "%", "viability": 93.6}
{"Compound": "Cc1c(C(=O)N(C)Cc2ccccc2)oc2ccc(S(=O)(=O)N3CCCC3)cc12", "Result Unit": "%", "viability": 54.3}
{"Compound": "COC(=O)c1ccccc1NC(=O)c1c(O)c2c([nH]c1=O)CCCC2", "Result Unit": "%", "viability": 88.3}
{"Compound": "COC(=O)c1[nH]c2cc(OC)ccc2c1NC(=O)c1ccc2c(c1)OCO2", "Result Unit": "%", "viability": 79.6}
{"Compound": "O=C(CS(=O)(=O)c1cn(Cc2cccc(F)c2)c2ccccc12)N1CCCCC1", "Result Unit": "%", "viability": 73.2}
{"Compound": "Cn1c(Cn2c(=O)sc3ccccc32)nnc1SCC(=O)N1CCOCC1", "Result Unit": "%", "viability": 103}
{"Compound": "CN(C(=O)c1ccc(=O)[nH]c1)C1(C(=O)NC2CCCCC2)CCCCC1", "Result Unit": "%", "viability": 95.7}
{"Compound": "COC(=O)c1sc2nc3c(cc2c1N)COC(C)(C)C3", "Result Unit": "%", "viability": 101}
{"Compound": "Cc1ccc2c(CC(=O)O)coc2c1", "Result Unit": "%", "viability": 89.3}
{"Compound": "Cc1nc(-c2ccc(S(=O)(=O)N3CCCCCC3)cc2)cs1", "Result Unit": "%", "viability": 90.8}
{"Compound": "Cc1ccc2oc(=O)c3cnn(CC(=O)NC4CCCCC4C)c3c2c1 (centres undefined)", "Result Unit": "%", "viability": 95.1}
{"Compound": "CCn1c2ccccc2c2nnc(SCc3cc(=O)n4ccsc4n3)nc21", "Result Unit": "%", "viability": 93.5}
{"Compound": "Cc1c(N=C2C(=O)Nc3ccccc32)c(=O)n(-c2ccccc2)n1C", "Result Unit": "%", "viability": 108}
{"Compound": "N#CC1=C2SCN(Cc3ccccc3)CN2C(=O)CC1c1ccccc1F (centres undefined)", "Result Unit": "%", "viability": 90.4}
{"Compound": "COc1ccc(C2C=C(c3ccc(C)c(C)c3)Nc3ncnn32)c(OC)c1OC (centres undefined)", "Result Unit": "%", "viability": 40.4}
{"Compound": "Cc1onc(-c2ccccc2Cl)c1C(=O)OCN1C(=O)c2ccccc2C1=O", "Result Unit": "%", "viability": 90}
{"Compound": "CCCc1cc(=O)oc2cc3occ(C)c3cc12", "Result Unit": "%", "viability": 93.6}
